test system: NCI-H226 lung; assay: NCI tumour cell line growth inhibition, 48 h
Readout kind: TGI (µM)
Report only the number, with the unit µM understood.

Task: Fill blank: measured TGI of the compound `COc1cc(-c2csc(NC(=O)Nc3ccc(C(F)(F)F)cc3)n2)cc(OC)c1OC` is ____.
Result: 8.4

###

test system: UACC-62 melanoma; assay: NCI tumour cell line growth inhibition, 48 h
Catalogue of TGI readings, one per entry.
Report only the number, with the unit µM understood.

CCCCNC(=O)C1C2CCC(O2)C1C(=O)O (stereo not given) : 43.4

Next up:
Task: UACC-62 melanoma / TGI / CC(CN(C)C)Oc1ccccc1NC1=C(Cl)C(=O)C(Nc2ccccc2OC(C)CN(C)C)=C(Cl)C1=O (stereo not given) : value?
Result: 3.05

###

Catalogue of TGI readings, one per entry.
tested on: MOLT-4 leukemia; assay: NCI tumour cell line growth inhibition, 48 h

CCN(CC)Cc1ccc(C(=S)Nc2ccc(C)cc2)s1 : 41.6 µM
C#CCN(N=O)C(=O)NCCCCC(NC(C)=O)C(=O)NCc1ccccc1 (stereo unspecified) : > 100 µM
c1ccc(C(=NCCC2CNc3ccccc32)c2ccccc2)cc1 (stereo unspecified) : > 100 µM
CCNC12CCC(C1)C(C)(C)C2=O (stereo unspecified) : > 100 µM
NC1=NN(c2ccccc2)C(=O)C1C(=O)C(=O)Nc1nccs1 (stereo unspecified) : > 100 µM

Next up:
Task: MOLT-4 leukemia / TGI / `Clc1ccccc1CNc1c2ccccc2nc2ccccc12` : value?
Result: 16.3 µM

###

test system: TK-10 renal; assay: NCI tumour cell line growth inhibition, 48 h
*1 amine or outer side, *2 acyl side, *3 side chain or, on linkers, in order; H or OH if unused. Where a SMILES comes first, the peptide text is derived from it. Bridges are numbered along the chain shown (N, C = ends). [ ]: non-standard residue; d: D form. The star is where a group is joined. X34 = O=C(C(CCCCNO[*:3])N[*:1])[*:2]; Fmoc = O=C(OCC1c2ccccc2-c2ccccc21)*
Catalogue of TGI readings, one per entry.

CC(C)C[C@H](NC(=O)[C@H](Cc1ccc(F)cc1)NC(=O)c1ccccn1)B(O)O : 0.0193 µM
CC(C)Oc1cccc(N2C(=NCCc3c[nH]c4ccccc34)Nc3ccncc3S2(=O)=O)c1 : > 100 µM
Cc1ccc(C(=O)/C(=C\c2ccc([N+](=O)[O-])cc2)S(=O)Cc2ccc(Cl)cc2)cc1 (configuration not stated) : 3.89 µM
CCOC(=O)C(CC/C=C\c1ccccc1)N1CCC[C@H]1C(=O)OC (some centres not stated) : > 100 µM
O=c1[nH]c(=O)n(C2CC(O)C(CO)O2)c2nc3ccc4cc5ccccc5cc4c3nc12 (configuration not stated) : > 100 µM

Task: Fill blank: measured TGI of the molecule `CC(=O)O[C@H](C[C@H](C(C)C)N(C)C(=O)[C@@H](NC(=O)[C@H]1CCCN1C)C(C)C)c1nc(C(=O)N[C@@H](Cc2ccccc2)C[C@H](C)C(=O)O)c(C)s1` is ____.
Result: > 16.7 µM

Task: Fill blank: measured TGI of the molecule NC(=O)CNC(=O)C1CCCN1C(=O)C1CCCCNOC(=O)CCC(NC(=O)OCC2c3ccccc3-c3ccccc32)C(=O)NC(Cc2c[nH]c3ccccc23)C(=O)N1 (configuration not stated) (Fmoc-EW[X34]PG-NH2; ester 1-3; configuration not given here) is ____.
Result: > 100 µM

###

system: RXF-631 renal; experiment: NCI tumour cell line growth inhibition, 48 h
Readout kind: TGI

// below: answered compounds
O=C(O/N=C1/CCC/C1=C\c1ccccc1)c1ccc(Cl)c(Cl)c1 : > 100 µM
O=c1cc(-c2ccco2)[nH]c2cc3c(cc12)OCO3 : > 100 µM
Cn1c(N)nc(=O)c2c1N(C1OC(CO)C(O)C1O)CN2Cc1ccccc1 (stereo not given) : > 100 µM
C/C=C1\CN2CCc3c([nH]c4ccccc34)C2C=C1CCO (stereo not given) : > 340 µM

Next up:
Task: Fill blank: measured TGI of the compound `CN=C(N)c1ccc(N=C(N)c2ccc(C(N)=Nc3ccc(C(N)=NC)cc3)cc2)cc1` is ____.
Result: > 100 µM

###

Catalogue of TGI readings, one per entry.
tested on: MOLT-4 leukemia; test: NCI tumour cell line growth inhibition, 48 h

O=C(Nc1cccc(-c2ccc(Cl)c(C(F)(F)F)c2)c1)C1CCN(Cc2cccc3cccnc23)CC1 : 4.52 µM
Cc1ccc(C(=O)/C(=C\c2ccc([N+](=O)[O-])cc2)S(=O)Cc2ccc(Cl)cc2)cc1 (stereo unspecified) : 6.14 µM
O=C(O)c1c(=O)cccc2ssc12 : 5.11 µM
O=C1C=CC(=O)N1c1cccc(N2C(=O)C=CC2=O)c1 : 7.73 µM
Cc1cccc2c1CCC21OC(=O)c2c1ccc1ccccc21 (stereo unspecified) : 79.8 µM

Task: MOLT-4 leukemia / TGI / `CC(C)(C)OC(=O)NCCNCCNc1ccccc1` : value?
Result: > 100 µM

Task: MOLT-4 leukemia / TGI / CC1(c2ccc(Cl)s2)CC(c2ccc(Cl)s2)=C(C#N)C(=C(C#N)C#N)N1 (stereo unspecified) : value?
Result: > 100 µM

Task: MOLT-4 leukemia / TGI / `O=C1C2CCN(CC2)C1(CO)CO` : value?
Result: 23.6 µM

Task: MOLT-4 leukemia / TGI / `[N-]=[N+]=NCCCn1c2c(c3ccc([N+](=O)[O-])cc3c1=O)C(=O)c1cc(F)ccc1-2` : value?
Result: 2.7 µM

Task: MOLT-4 leukemia / TGI / `CSC1=NNC(SC)=NN1` : value?
Result: 0.114 µM

###

system: OVCAR-4 ovarian; experiment: NCI tumour cell line growth inhibition, 48 h
Catalogue of TGI readings, one per entry.
Report only the number, with the unit µM understood.

// below: answered compounds
CSc1snc2sc3c(Cl)nnnc3c12 : 29.5
CCc1ccc(C(=Nc2ccc(N(C)C(=O)CN3CCN(C)CC3)cc2)c2c(O)[nH]c3ccc(C(=O)OC)cc23)cc1 : 1.95
Clc1ccccc1CNc1c2ccccc2nc2ccccc12 : 8.11
CN(Cc1cc(Br)cc(Br)c1O)Cc1c(O)ccc2ccccc12 : 34.9

Next up:
Task: OVCAR-4 ovarian / TGI / `CCn1c(-c2nonc2N)nc2c(C#CC(C)(C)O)ncc(OC[C@H]3CCCNC3)c21` : value?
Result: 92.2

###

test system: UACC-257 melanoma; assay: NCI tumour cell line growth inhibition, 48 h
Catalogue of log10(TGI) readings, one per entry.
Parameter value (number): base-10 log of TGI in µM.

// below: answered compounds
O=C(O)c1c(=O)cccc2ssc12 : 0.62
C/C(=N\NC(=S)SCc1ccccc1)c1ccccn1 : 0.15
CC(=O)O[C@H]1[C@@H]2OC(=O)C(CSc3ccccc3)[C@@H]2C[C@H]2O[C@]2(C)CC/C=C(\C)CCC[C@@H]1C (some centres undefined) : 1.28

Task: Fill blank: measured log10(TGI) of the compound `O=C(NNC(=S)NCc1ccccc1)c1csc(NC(=S)NC2CCCCC2)n1` is ____.
Result: 1.63

Task: Fill blank: measured log10(TGI) of the compound `CC1(N)CCN(c2cnc(-c3cccc(Cl)c3Cl)c(N)n2)CC1` is ____.
Result: 1.55

Task: Fill blank: measured log10(TGI) of the compound `O=C1C=CC(=O)N1c1cccc(N2C(=O)C=CC2=O)c1` is ____.
Result: 0.52

Task: Fill blank: measured log10(TGI) of the compound `CCOc1ccccc1-c1nc2c(s1)C(=O)c1ccccc1C2=O` is ____.
Result: 1.44

Task: Fill blank: measured log10(TGI) of the compound `Oc1c(Br)cc(/C=C/c2cccc(/C=C/c3cc(Br)c(O)c(Br)c3)n2)cc1Br` is ____.
Result: 1.57

Task: Fill blank: measured log10(TGI) of the compound `COc1cc(-c2csc(NC(=O)Nc3ccc(C(F)(F)F)cc3)n2)cc(OC)c1OC` is ____.
Result: 0.77

###

tested on: SNB-75 CNS; assay: NCI tumour cell line growth inhibition, 48 h
Catalogue of TGI readings, one per entry.
Report only the number, with the unit µM understood.

Cc1cn2c(/C=N/N=C(N)N)c(-c3ccccn3)nc2s1 : 19.3

Next up:
Task: Fill blank: measured TGI of the molecule `CN(CC(=O)Nc1nc2ccccc2[nH]1)S(=O)(=O)c1ccc(Cl)cc1` is ____.
Result: 78.8

###

system: MDA-MB-435; assay: NCI tumour cell line growth inhibition, 48 h
Readout kind: TGI (µM)
Report only the number, with the unit µM understood.

// below: answered compounds
CCCCCCCCCNC(=O)/C=C/c1ccc(O)c(O)c1 : 23.5
C/C(=C\c1cc(C(F)(F)F)n(-c2ccc(N)cc2)n1)[C@@H]1C[C@@H]2O[C@]2(C)CCC[C@H](C)[C@H](O)[C@@H](C)C(=O)C(C)(C)[C@@H](O)CC(=O)O1 : 0.00567
COc1cc(-c2csc(NC(=O)Nc3ccc(C(F)(F)F)cc3)n2)cc(OC)c1OC : 3.74

Next up:
Task: Fill blank: measured TGI of the compound `O=C(NNC(=S)NCc1ccccc1)c1csc(NC(=S)NC2CCCCC2)n1` is ____.
Result: 82.9

Sourced from PubChem BioAssay (NCI)
